Entries and their measured pIC50 follow.
target: PD-L1/PD-1 complex formation (Homo sapiens, UniProt Q9NZQ7); test: PD-L1/PD-1 Interaction Assay (ELISA platform); settings: human PD-1-Fc coated plates, PD-L1-Fc-biotin 0.1 μg/ml, compounds pre-incubated 2 hours
Sequence (Q9NZQ7 19-239 limits assumed, one chain of several): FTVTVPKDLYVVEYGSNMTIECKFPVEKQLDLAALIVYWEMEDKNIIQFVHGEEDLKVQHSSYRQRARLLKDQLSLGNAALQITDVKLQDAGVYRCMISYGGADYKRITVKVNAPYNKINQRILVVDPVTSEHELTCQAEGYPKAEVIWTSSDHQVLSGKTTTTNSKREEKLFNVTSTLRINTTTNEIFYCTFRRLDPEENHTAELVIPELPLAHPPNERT
pIC50: −log10 of the molar value. Where a name gives a salt, the structure may show the parent alone.

### Prompt Reported pIC50, compound Cc1c(COc2ccc(CN3CCCC[C@@H]3C(=O)O)cc2Br)cccc1-c1cccc(COc2ccc(CN3CCCC[C@@H]3C(=O)O)cc2Br)c1C [Example 2] : ____
### Response 7.00 to 7.96

### Prompt Look at this compound and give its reported pIC50. C#Cc1cc(CN2CCCC[C@H]2C(=O)O)ccc1OCc1cccc(-c2cccc(COc3ccc(CN4CCCC[C@H]4C(=O)O)cc3C#C)c2C)c1C [Example 26, di-trifluoroacetic acid salt]
### Response 7.00 to 7.96

### Prompt Item CCc1cc(CN2CCCC[C@H]2C(=O)O)ccc1OCc1cccc(-c2cccc(COc3ccc(CN4CCCC[C@H]4C(=O)O)cc3CC)c2C)c1C [Example 27, di-trifluoroacetic acid salt] has what recorded pIC50?
### Response 6.00 to 6.96

### Prompt // lookup pIC50 for Cc1c(COc2ccc(CN[C@H](C)C(=O)O)cc2Br)cccc1-c1cccc(COc2ccc(CN[C@H](C)C(=O)O)cc2Br)c1C [Example 16, di-trifluoroacetic acid salt]
### Response 7.00 to 7.96

### Prompt # get_value(readout='pIC50', item= Cc1c(COc2ccc(CN3CCCC[C@H]3C(=O)O)cc2C(F)(F)F)cccc1-c1cccc(COc2ccc(CN3CCCC[C@H]3C(=O)O)cc2C(F)(F)F)c1C [Example 13] )
### Response 8.00 to 10.00

### Prompt I am curious: what pIC50 value has been reported for COC(=O)[C@@H]1CCCCN1Cc1ccc(OCc2cccc(-c3cccc(COc4ccc(CN5CCCC[C@H]5C(=O)OC)cc4Br)c3C)c2C)c(Br)c1 [Example 4] ?
### Response < 4.52

### Prompt Please give the measured pIC50 for this compound: Cc1c(COc2ccc(CN3CCCC[C@H]3C(=O)NCCO)cc2Br)cccc1-c1cccc(COc2ccc(CN3CCCC[C@H]3C(=O)NCCO)cc2Br)c1C [Example 24]
### Response 6.00 to 6.96

### Prompt Query (compound): O=C(O)[C@@H]1CCCCN1Cc1ccc(OCc2cccc(-c3cccc(COc4ccc(CN5CCCC[C@H]5C(=O)O)cc4Br)c3Cl)c2Cl)c(Br)c1 [Example 9] ; field requested: pIC50
### Response 8.00 to 10.00

### Prompt Need pIC50 of Cc1c(COc2ccc(CNC(C)(CO)CO)cc2Br)cccc1-c1cccc(COc2ccc(CNC(C)(CO)CO)cc2Br)c1C [Example 33, di-trifluoroacetic acid salt] , thanks.
### Response 8.00 to 10.00

###

The reader will find reported melting point values listed item by item below.

compound | melting point
Cc1c(COc2ccc(CN3CCCC[C@H]3C(=O)O)cc2C(F)(F)F)cccc1-c1cccc(COc2ccc(CN3CCCC[C@H]3C(=O)O)cc2C(F)(F)F)c1C [Example 13] | 287 to 291 °C
Cc1c(COc2ccc(CN3CCCC[C@H]3C(=O)O)cc2F)cccc1-c1cccc(COc2ccc(CN3CCCC[C@H]3C(=O)O)cc2F)c1C [Example 19] | 205 to 209 °C
Cc1cc(CN2CCCC[C@H]2C(=O)O)ccc1OCc1cccc(-c2cccc(COc3ccc(CN4CCCC[C@H]4C(=O)O)cc3C)c2C)c1C [Example 11] | 191 to 195 °C
O=C(O)[C@@H]1CCCCN1Cc1ccc(OCc2cccc(-c3cccc(COc4ccc(CN5CCCC[C@H]5C(=O)O)cc4Br)c3F)c2F)c(Br)c1 [Example 10] | 204 to 208 °C

Next:
### Prompt Could you share which melting point value was measured for COc1cc(OCc2cccc(-c3cccc(COc4cc(OC)c(CNCCO)c(OC)c4)c3C)c2C)cc(OC)c1CNCCO [Example 22] ?
### Response 86 to 90 °C

###

biological target: PD-L1/PD-1 complex formation (Homo sapiens); experiment: PD-L1/PD-1 Interaction Assay (ELISA platform); details: human PD-1-Fc coated plates, PD-L1-Fc-biotin 0.1 μg/ml, compounds pre-incubated 2 hours
pIC50: −log10 of the molar value. Structures can show the parent of a compound that is named as a salt.
quantity: pIC50

Consider the reported pIC50 for these compounds:
compound | quantity | result
CC(=O)NCCNCc1ccc(OCc2cccc(-c3cccc(COc4ccc(CNCCNC(C)=O)cc4Br)c3C)c2C)c(Br)c1 | pIC50 | 7.00 to 7.96
Cc1c(COc2ccc(CNC(CO)CO)cc2Br)cccc1-c1cccc(COc2ccc(CNC(CO)CO)cc2Br)c1C [Example 32, di-trifluoroacetic acid salt] | pIC50 | 8.00 to 10.00
CSc1cc(CN2CCCC[C@H]2C(=O)O)ccc1OCc1cccc(-c2cccc(COc3ccc(CN4CCCC[C@H]4C(=O)O)cc3SC)c2C)c1C [Example 28, di-trifluoroacetic acid salt] | pIC50 | 6.00 to 6.96
Cc1c(COc2ccc(CN3CCCC[C@H]3C(=O)O)cc2O)cccc1-c1cccc(COc2ccc(CN3CCCC[C@H]3C(=O)O)cc2O)c1C | pIC50 | 4.52 to 6.00

### Prompt Form field: reported pIC50 of Cc1c(COc2ccc(CNCCO)cc2Br)cccc1-c1cccc(COc2ccc(CNCCO)cc2Br)c1C [Example 5, di-trifluoroacetic acid salt]
### Response 8.00 to 10.00

### Prompt // query pIC50 value for entry `COc1cc(CN2CCCC[C@H]2C(=O)O)ccc1OCc1cccc(-c2cccc(COc3ccc(CN4CCCC[C@H]4C(=O)O)cc3OC)c2C)c1C`
### Response 4.52 to 6.00

### Prompt Item `COc1cc(OCc2cccc(-c3cccc(COc4cc(OC)c(CNCCO)c(OC)c4)c3C)c2C)cc(OC)c1CNCCO` has what recorded pIC50?
### Response 7.00 to 7.96
